Species: Rattus norvegicus
Test: Open TG-GATES - Regimen: Daily Repeat
Type: toxicity, organism-based, Sprague-Dawley
Set-up: regimen Daily Repeat, gender Male, age 6 weeks
Conditions: in vivo, po, 100 mg/kg, […], tissue Kidney, route gavage, dose level Low, time 14 day
Kindly supply the reported KIDNEY_L values for the records listed here.
Number only, in g; omit the unit.

Summary for this molecule, CC(=O)[C@@]1(O)CC[C@H]2[C@@H]3C=C(Cl)C4=CC(=O)CC[C@]4(C)[C@H]3CC[C@@]21C : KIDNEY_L is 1.1

Data point: CCCCNC(=O)NS(=O)(=O)c1ccc(C)cc1 [TOLBUTAMIDE] ; KIDNEY_L = 1.2

Query CC(S)C(=O)NCC(=O)O (centres undefined) yields KIDNEY_L of 1.2

Notebook: O=C(O)c1ccccc1Nc1ccccc1 , KIDNEY_L read as 1.3

----------
Species: Rattus norvegicus
Assay: Open TG-GATES - Regimen: Daily Repeat
Format: toxicity, organism-based, Sprague-Dawley
Parameters: regimen Daily Repeat, gender Male, age 6 weeks
Conditions: in vivo, po, 0 mg/kg, […], tissue Blood, route gavage, dose level Control, time 14 day
# Ret >= 5% gives 1 (yes), anything below gives 0 (no)

Can CN(C/C=C/C#CC(C)(C)C)Cc1cccc2ccccc12 [TERBINAFINE] be said to have Ret at or above 5%?
0 (no)

Reported Ret at or above 5%? O=C(O)c1ccccc1Nc1ccccc1 [FENAMIC ACID]
0 (no)

Given NS(=O)(=O)c1cc(C(=O)O)c(NCc2ccco2)cc1Cl [FUROSEMIDE] , state whether its Ret is at least 5%.
0 (no)

Please indicate if the recorded Ret for CN(CCOc1ccc(CC2SC(=O)NC2=O)cc1)c1ccccn1.O=C(O)/C=C\C(=O)O (stereo not drawn) [ROSIGLITAZONE MALEATE] meets or exceeds 5%.
0 (no)

Could you tell me if the measured Ret of CC(S)C(=O)NCC(=O)O (stereo not drawn) [TIOPRONIN] reaches 5% or more?
1 (yes)

Assess whether reported Ret for CC(=O)[C@@]1(O)CC[C@H]2[C@@H]3C=C(Cl)C4=CC(=O)CC[C@]4(C)[C@H]3CC[C@@]21C [CHLORMADINONE] sits at 5% or higher.
1 (yes)

Check the entry CCCCNC(=O)NS(=O)(=O)c1ccc(C)cc1 [TOLBUTAMIDE] : does Ret equal or exceed 5%?
0 (no)

Does Ret meet or surpass 5% for O=c1ccc2ccccc2o1 [COUMARIN] ?
0 (no)

State whether the measured Ret reaches 5%, counting equality as reaching it, for CCCCC1C(=O)N(c2ccccc2)N(c2ccccc2)C1=O [PHENYLBUTAZONE]
0 (no)

Reported Ret reaches at least 5% for CCO [ALCOHOL] ?
0 (no)

Test whether the compound Nc1ccc(Cc2ccc(N)cc2)cc1 records Ret of 5% or higher.
1 (yes)

I'd appreciate it if you could say whether COc1ccc([C@@H]2Sc3ccccc3N(CCN(C)C)C(=O)[C@@H]2OC(C)=O)cc1 [DILTIAZEM] has Ret at least equal to 5%.
1 (yes)

----------
Organism: Rattus norvegicus
Experiment: Open TG-GATES - Regimen: Daily Repeat
Assay type: toxicity, organism-based, Sprague-Dawley
Parameters: regimen Daily Repeat, gender Male, age 6 weeks
Details: in vivo, po, 0 mg/kg, […], tissue Kidney, route gavage, dose level Control, time 7 day
So I've got a bunch of compounds here, and I need their KIDNEY_L values.
Give a bare numeral; the unit g is implied.

Just so you know, measured KIDNEY_L for COc1ccc([C@@H]2Sc3ccccc3N(CCN(C)C)C(=O)[C@@H]2OC(C)=O)cc1 [DILTIAZEM] came out at 1.1

KIDNEY_L measured on Nc1ccc(Cc2ccc(N)cc2)cc1 = 1.2

Please fill in: KIDNEY_L reported for CCCCC1C(=O)N(c2ccccc2)N(c2ccccc2)C1=O [PHENYLBUTAZONE] = 1.2

Given item CC(S)C(=O)NCC(=O)O (stereo not given) [TIOPRONIN] , the value recorded as its KIDNEY_L is 1.1

Sample CN(C/C=C/C#CC(C)(C)C)Cc1cccc2ccccc12 [TERBINAFINE] ; KIDNEY_L observed: 1.2

// KIDNEY_L lookup, compound = CCO [ALCOHOL] , result: 1.1

For record CC(=O)[C@@]1(O)CC[C@H]2[C@@H]3C=C(Cl)C4=CC(=O)CC[C@]4(C)[C@H]3CC[C@@]21C [CHLORMADINONE] the listed KIDNEY_L is 1.1

# KIDNEY_L of O=c1ccc2ccccc2o1 [COUMARIN] = 1

CCCCNC(=O)NS(=O)(=O)c1ccc(C)cc1 [TOLBUTAMIDE] yielded KIDNEY_L of 1.1

Short answer for O=C(O)c1ccccc1Nc1ccccc1 [FENAMIC ACID] : KIDNEY_L was 1.1

The reported numbers originate from ChEMBL document CHEMBL3885861.
